Task for the reader: assign each of the following compounds its reported inhibition at 0.1 µM.
experimentalTarget: human recombinant adrenergic α1D receptor (Homo sapiens)
Construct: expressed in transfected cells; host or cells: human embryonic kidney (HEK-293) cells
Sequence (P25100 whole entry): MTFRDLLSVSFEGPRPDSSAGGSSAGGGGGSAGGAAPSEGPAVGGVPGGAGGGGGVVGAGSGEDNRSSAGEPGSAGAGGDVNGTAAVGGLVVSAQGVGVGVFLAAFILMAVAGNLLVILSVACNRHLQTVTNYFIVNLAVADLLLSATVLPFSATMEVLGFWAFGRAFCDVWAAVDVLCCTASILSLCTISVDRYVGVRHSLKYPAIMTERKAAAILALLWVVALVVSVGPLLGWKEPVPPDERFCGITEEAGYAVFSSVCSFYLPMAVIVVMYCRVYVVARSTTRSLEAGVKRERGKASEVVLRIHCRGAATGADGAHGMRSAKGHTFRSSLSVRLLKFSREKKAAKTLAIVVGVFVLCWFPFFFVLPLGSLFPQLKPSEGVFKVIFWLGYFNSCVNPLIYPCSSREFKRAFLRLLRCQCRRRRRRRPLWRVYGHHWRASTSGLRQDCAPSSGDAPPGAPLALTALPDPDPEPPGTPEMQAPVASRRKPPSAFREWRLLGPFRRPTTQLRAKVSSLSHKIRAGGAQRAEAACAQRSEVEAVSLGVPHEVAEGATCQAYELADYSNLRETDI
assayInfo: Adrenergic α1D radioligand binding assay ([3H]Prozosin)
assayContext: compound at 0.1 μM; 0.6 nM [3H]Prozosin; HEK-293 cells; read-out: Percent Inhibition of ligand binding, Adrenergic (0.1 μM) a1D
Kindly format the answer as number then unit.

Parameters: items (list). Returns: inhibition at 0.1 µM for each item.
1. COc1ccc([C@](C)(O)Cn2c3c(c4cc(C)ccc42)CN(C)CC3)cc1
2. CC[C@@](O)(Cn1c2c(c3cc(C)ccc31)CN(C)CC2)c1ccncc1
3. CCCC[C@](O)(Cn1c2c(c3cc(Cl)ccc31)CN(C)CC2)c1ccc(F)cc1

Solution:
22%
6%
14%

Parameters: items (list). Returns: inhibition at 0.1 µM for each item.
1. CC[C@](O)(Cn1c2c(c3cc(C)ccc31)CN(C)CC2)c1ccc(F)cc1
2. Cc1ccc2c(c1)c1c(n2CCc2ccc(C)nc2)CCN(CC(F)(F)F)C1
3. CC[C@](O)(Cn1c2c(c3cc(C)ccc31)CN(C)CC2)c1ccncc1

Solution:
1: 13%; 2: 4%; 3: -13%

Data origin, for the record: patent US9255094B2
